Listing of entries alongside the reported protein stability index.
Test system: Saccharomyces cerevisiae
Assay: protein stability index of tFT-peptide fusion (C-terminal peptide) (PSI (0-1 scale)); higher = more stable (slower turnover)
Conditions: genetic background: wild type; temperature: 30 C

// below: answered sequences
I'm curious: which protein stability index was measured for VTCGVGQHAAIA tested on Saccharomyces cerevisiae?
0.731

I'm curious: which protein stability index was measured for LLRLPLLALLFV tested on Saccharomyces cerevisiae?
0.111

I'm curious: which protein stability index was measured for HPPSLPPLPPPL tested on Saccharomyces cerevisiae?
0.727

Continuing:
I'm curious: which protein stability index was measured for PPPLHPPPPPPA tested on Saccharomyces cerevisiae?
0.704

I'm curious: which protein stability index was measured for SPQKCKSAPSSC tested on Saccharomyces cerevisiae?
0.675

I'm curious: which protein stability index was measured for LFRLRLFPHPHF tested on Saccharomyces cerevisiae?
0.645

I'm curious: which protein stability index was measured for WGRRVSPVRDGR tested on Saccharomyces cerevisiae?
0.671

I'm curious: which protein stability index was measured for PPLPPLSPAPPR tested on Saccharomyces cerevisiae?
0.681

I'm curious: which protein stability index was measured for RRVNDLGPPMRN tested on Saccharomyces cerevisiae?
0.779

I'm curious: which protein stability index was measured for GKSGGAVRGCGG tested on Saccharomyces cerevisiae?
0.657

I'm curious: which protein stability index was measured for PPPDHSPPPCPP tested on Saccharomyces cerevisiae?
0.686

I'm curious: which protein stability index was measured for TYVPRYPPPLFP tested on Saccharomyces cerevisiae?
0.72

I'm curious: which protein stability index was measured for APSPPRAPLPPA tested on Saccharomyces cerevisiae?
0.689

I'm curious: which protein stability index was measured for VNRRCWISRTLP tested on Saccharomyces cerevisiae?
0.258

I'm curious: which protein stability index was measured for GDGAGGGFGLVV tested on Saccharomyces cerevisiae?
0.724

----------
Test system: Saccharomyces cerevisiae
Test: protein stability index of tFT-peptide fusion (C-terminal peptide) (PSI (0-1 scale)); higher = more stable (slower turnover)
Conditions: genetic background: doa10 deletion; temperature: 30 C
Listing of entries alongside the reported protein stability index.
No unit in the answer, only the number.

// below: answered sequences
I'm curious: which protein stability index was measured for FLYIPLYCRLSF tested on Saccharomyces cerevisiae?
0.209

I'm curious: which protein stability index was measured for VWWTLWRVHMLG tested on Saccharomyces cerevisiae?
0.106

I'm curious: which protein stability index was measured for AVLAALVSTLAG tested on Saccharomyces cerevisiae?
0.349

I'm curious: which protein stability index was measured for AMFQLRLLVGSV tested on Saccharomyces cerevisiae?
0.36

I'm curious: which protein stability index was measured for FFFVFLGLRSVF tested on Saccharomyces cerevisiae?
0.339

I'm curious: which protein stability index was measured for LSARVFCFWFFS tested on Saccharomyces cerevisiae?
0.187

I'm curious: which protein stability index was measured for WGRGYRWRIWDV tested on Saccharomyces cerevisiae?
0.396

I'm curious: which protein stability index was measured for DSPRGRCVRLLV tested on Saccharomyces cerevisiae?
0.253

Continuing:
I'm curious: which protein stability index was measured for IVVVVRLSPILG tested on Saccharomyces cerevisiae?
0.228

----------
System: Saccharomyces cerevisiae
Test: protein stability index of tFT-peptide fusion (C-terminal peptide) (PSI (0-1 scale)); higher = more stable (slower turnover)
Conditions: genetic background: das1 deletion; temperature: 30 C
Listing of entries alongside the reported protein stability index.
No unit in the answer, only the number.

Please look up its protein stability index: ENASQLPHPSQK [ZIM17 C-terminal 12 aa]
0.698

Please look up its protein stability index: MASVVKGNATSA [PHO90 C-terminal 12 aa]
0.694

Please look up its protein stability index: CKSNKKHKQRQG [RTC6 C-terminal 12 aa]
0.701

Please look up its protein stability index: MDSRVAHGNILI [SRB5 C-terminal 12 aa]
0.7

Continuing:
Please look up its protein stability index: CDSEMFASSKDE [ERI1 C-terminal 12 aa]
0.698

Please look up its protein stability index: ENDPWKVVRLAP [PDX3 C-terminal 12 aa]
0.711

Please look up its protein stability index: FSTEYLGLICTY [YLR232W C-terminal 12 aa]
0.494

Please look up its protein stability index: EADMKTKLDISD [NBP2 C-terminal 12 aa]
0.695
